# assayed_system: T1, hCD137.2.3-F.G1d (human)
# T1 construct: Portion of the human CD137 extracellular region linked to an antibody constant region
# T1 sequence (chain, as listed by the source limits assumed): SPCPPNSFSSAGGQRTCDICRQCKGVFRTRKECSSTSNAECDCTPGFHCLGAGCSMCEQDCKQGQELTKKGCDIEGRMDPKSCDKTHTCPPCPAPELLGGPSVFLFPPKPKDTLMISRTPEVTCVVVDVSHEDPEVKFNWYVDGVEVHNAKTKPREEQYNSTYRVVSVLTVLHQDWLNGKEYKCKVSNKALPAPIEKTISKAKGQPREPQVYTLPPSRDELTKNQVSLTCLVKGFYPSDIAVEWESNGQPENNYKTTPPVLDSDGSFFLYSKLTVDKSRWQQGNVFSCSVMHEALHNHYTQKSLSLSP
# procedure_text: ELISA; 500 uM kynurenine, Ab 10 ug/mL
Catalogue of binders with associated absorbance ratio

binder	absorbance ratio
dBBK102-P253 (antibody, human IgG1, kappa, V domains shown) VH: QVQLVQSGAEVKKPGSSVKVSCKASGGAFSYYLISWVRQAPGQGLEWMGFVDPIRGGAFYAQKFQGRVTITADESTSTAYMELSSLRSEDTAVYYCARDRPVNAAPRGAFDIWGQGTLVTVSS VL: DIVMTQSPLSLPVTPGEPASISCRSSQSLVWNDRNTFLSWYLQKPGQSPQLLIYEIRKRFYGVPDRFSGSGSGTDFTLKISRVEAEDVGVYYCMQAQDFPRTFGQGTKVEIKR	1.1
dBBK026-P253 (antibody, human IgG1, kappa, V domains shown) VH: QVQLVQSGAEVKKPGSSVKVSCKASGGEFSNYFISWVRQAPGQGLEWMGMVHPIEGWAVYAQKFQGRVTITADESTSTAYMELSSLRSEDTAVYYCARDRPVFCCPRGAFDIWGQGTLVTVSS VL: DIVMTQSPLSLPVTPGEPASISCRSSQSLVSPGDNTFLSWYLQKPGQSPQLLIYEIERRFYGVPDRFSGSGSGTDFTLKISRVEAEDVGVYYCMQASTFPRTFGQGTKVEIKR	1.1
dBBK054-P253 (antibody, human IgG1, kappa, V domains shown) VH: QVQLVQSGAEVKKPGSSVKVSCKASGGWFSYYMISWVRQAPGQGLEWMGVIVPINGAAQYAQKFQGRVTITADESTSTAYMELSSLRSEDTAVYYCARDRPVWRTPRGAFDIWGQGTLVTVSS VL: DIVMTQSPLSLPVTPGEPASISCRSSQSLVDSNMNTFLSWYLQKPGQSPQLLIYEIQHRFYGVPDRFSGSGSGTDFTLKISRVEAEDVGVYYCMQAMGFPRTFGQGTKVEIKR	1.1
dBBK060-P253 (antibody, human IgG1, kappa, V domains shown) VH: QVQLVQSGAEVKKPGSSVKVSCKASGGDFSNYVISWVRQAPGQGLEWMGFINPIYGAAGYAQKFQGRVTITADESTSTAYMELSSLRSEDTAVYYCARDEPVASLPHGAFDIWGQGTLVTVSS VL: DIVMTQSPLSLPVTPGEPASISCRSSQSLVDPWGNTFLSWYLQKPGQSPQLLIYEISNRFYGVPDRFSGSGSGTDFTLKISRVEAEDVGVYYCMQAKDFPRTFGPGTKVEIKR	1.2

// provenance: patent US20210324099A1
